target: PDGF-BB (Homo sapiens, UniProt P01127 P01127:82-190); experiment: filter; +/-0.009; high affinity component; PBSM, 37 C; details: tags: R&D Systems, E. coli; chain copies: 2 (inferred); label: 5'-32P; three-way helix junction
Sequence (P01127 82-190, one chain of several): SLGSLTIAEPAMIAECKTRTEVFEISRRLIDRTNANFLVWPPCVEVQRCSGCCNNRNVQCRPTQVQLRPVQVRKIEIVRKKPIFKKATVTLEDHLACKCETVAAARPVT
recordedEndpoint: Kd

Indicate its recorded Kd; the binder in question is CACAGGCTACGGCACGTAGAGCATCACCATGATCCTGTGT (ssDNA, 3'-3' linked T at 3' end) [36t]
0.093 nM
